testedSystem: Corticotropin-releasing factor receptor 2/Corticotropin-releasing factor-binding protein (Homo sapiens, UniProt P24387+Q13324)
Sequence (Q13324 whole entry): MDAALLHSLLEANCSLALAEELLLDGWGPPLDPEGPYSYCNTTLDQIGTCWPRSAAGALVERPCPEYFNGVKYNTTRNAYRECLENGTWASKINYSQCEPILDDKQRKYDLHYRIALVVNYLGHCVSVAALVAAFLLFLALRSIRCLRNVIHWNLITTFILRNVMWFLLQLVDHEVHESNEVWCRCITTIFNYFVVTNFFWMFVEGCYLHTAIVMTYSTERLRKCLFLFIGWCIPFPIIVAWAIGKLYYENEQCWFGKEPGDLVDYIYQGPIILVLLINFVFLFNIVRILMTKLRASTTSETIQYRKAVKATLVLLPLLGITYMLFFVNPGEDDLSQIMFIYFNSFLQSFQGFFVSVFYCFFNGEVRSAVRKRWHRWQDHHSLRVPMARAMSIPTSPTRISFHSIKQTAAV
Sequence (P24387 whole entry): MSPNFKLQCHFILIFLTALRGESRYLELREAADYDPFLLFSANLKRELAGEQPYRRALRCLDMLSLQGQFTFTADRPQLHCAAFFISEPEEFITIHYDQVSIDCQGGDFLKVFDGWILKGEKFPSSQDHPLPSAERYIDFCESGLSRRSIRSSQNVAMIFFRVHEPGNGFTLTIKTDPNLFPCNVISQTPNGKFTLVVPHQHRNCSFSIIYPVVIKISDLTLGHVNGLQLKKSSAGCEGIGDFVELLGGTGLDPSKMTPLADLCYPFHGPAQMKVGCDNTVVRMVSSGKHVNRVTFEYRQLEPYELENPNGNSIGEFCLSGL
assayMethodText: activators of CRF receptor 2 with binding protein – uHTS hits, confirmation (AID 602473)
Assay type: functional
experimentalSetup: read-out: EC50_Mean
Activity calls are given as the source filed them. No stated cut-off is given here; in the data, actives have a measured EC50 and inactives only a lower limit.
For each entry below, report its EC50 value.

Lab note: CC(C)c1cc(N2CCC(=O)NC2=O)cc(C(=O)O)c1O gave EC50 of > 53 µM (inactive)

Lab note: CC1=C(C(=O)OC(C)C)C(c2cccs2)N2C(=O)C(C)SC2=N1 (centres undefined) gave EC50 of > 53 µM (inactive)

Lab note: O=S(=O)(NC1CCCCC1N1CCN(c2ccccc2F)CC1)c1ccc(Cl)cc1 (centres undefined) gave EC50 of 6.24 µM (active)

Lab note: N#Cc1c(C(F)(F)F)cc(-c2ccc(Cl)cc2)nc1O gave EC50 of > 53 µM (inactive)

Lab note: CCOc1ccc(N2CC(C(=O)NCc3nnnn3-c3ccc(C)c(C)c3)CC2=O)cc1 (centres undefined) gave EC50 of > 53 µM (inactive)

Lab note: CCC(C)NS(=O)(=O)c1ccc(OCC(=O)NCc2ccccn2)cc1 (centres undefined) gave EC50 of > 53 µM (inactive)

Lab note: COC(=O)C(CC(=O)c1cccc(OC)c1)c1ccc(F)cc1 (centres undefined) gave EC50 of > 53 µM (inactive)

Lab note: Cc1ccc(NS(=O)(=O)c2ccc(C(=O)Nc3nncs3)cc2)cc1 gave EC50 of > 53 µM (inactive)

Lab note: COc1ccccc1CNC(=O)CCc1nnc2ccc(NCCCN3CCCC3=O)nn12 gave EC50 of > 53 µM (inactive)

Lab note: O=C(CCC(=O)OCC(F)(F)C(F)F)NCc1ccccc1 gave EC50 of > 53 µM (inactive)

Lab note: CC1CCCCN1C(C(=O)O)c1ccccc1 (centres undefined) gave EC50 of > 53 µM (inactive)

Lab note: COc1cccc(NC(=S)NC(=O)Cc2ccc(Cl)cc2)c1 gave EC50 of 5.76 µM (active)

Lab note: CCCCc1ccc(/N=C/C2=C(O)OC3(CCCCC3)OC2=O)cc1 gave EC50 of 5.81 µM (active)

Lab note: C=C(C)C(=O)Oc1ccc(N2C(=O)[C@@H]3C4C=CC(C4)[C@@H]3C2=O)cc1 gave EC50 of > 53 µM (inactive)
